B1: glmS ribozyme (parent)
chain: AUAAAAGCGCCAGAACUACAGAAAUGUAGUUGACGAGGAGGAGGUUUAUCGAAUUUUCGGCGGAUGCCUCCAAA

Variants of: B1
procedureText: self-cleavage kobs at 2500 uM GlcN6P; higher = faster cleavage; RNA array
conditions: with glucosamine-6-phosphate
This sample holds only a part of the variants without activity.
The following variants are listed with their measured self-cleavage kobs at 2500 uM GlcN6P values.

Guide cases for self-cleavage kobs at 2500 uM GlcN6P, answers given:
In [3]: df
Out[3]:
     mutantdesignation  experimentalresult
0  A33G G40U C58A C67A         < 1e-05 s⁻¹
1   A6U C10G A53C G62U         < 1e-05 s⁻¹
2            C11U G32A        0.000239 s⁻¹
3                 C68A        0.000102 s⁻¹
4            G32U C58A        0.000495 s⁻¹
5       G32U G40C A42G        7.39e-05 s⁻¹

self-cleavage kobs at 2500 uM GlcN6P lookup needed for G38C U45C C70A , thanks.
< 1e-05 s⁻¹

self-cleavage kobs at 2500 uM GlcN6P lookup needed for C11A C16G A42U U56G C71U , thanks.
< 1e-05 s⁻¹
